Test system: Pseudomonas aeruginosa
Assay: Antimicrobial activity against Pseudomonas aeruginosa after 24 hrs by spectrophotometry
Format: functional
Positions of bridges follow the written chain, without caps; N, C: chain ends. Non-standard residues stand in square brackets, D forms with d. Residues, ends and D or L forms follow the SMILES beside them. ξ: configuration not given here. *: point of attachment. Hexanoyl(4ξ-Me) = CCC(C)CCC(=O)*; Myristoyl = CCCCCCCCCCCCCC(=O)*; X1 = CC(C)=CCC/C(C)=C/C(=O)*; dDab = NCC[C@@H](N)C(=O)O; X2 = CCC(C)CCC(O)CC(=O)*; Dab = NCC[C@H](N)C(=O)O
metricName: log10(MIC) (log10 of the value in µM)

| compound | log10(MIC) |
| --- | --- |
| CC(C)=CCC/C(C)=C/C(=O)N[C@H](CCN)C(=O)N[C@H]1CCNC(=O)[C@H](CC(C)C)NC(=O)[C@H](CCN)NC(=O)[C@H](CCN)NC(=O)[C@@H](Cc2ccccc2)NC(=O)[C@H](CC(C)C)NC(=O)[C@H](CCN)NC1=O | 1.00 |
| CC(C)=CCC/C(C)=C/C(=O)N[C@H](CCN)C(=O)N[C@@H](CCN)C(=O)N[C@@H](CCN)C(=O)N[C@@H](CC(C)C)C(=O)N[C@H](Cc1ccccc1)C(=O)N[C@@H](CCN)C(=O)N[C@@H](CCN)C(=O)N[C@@H](CC(C)C)C(N)=O (X1-[dDab][Dab][Dab]L[dF][Dab][Dab]L-NH2) | 1.68 |
| CCC(C)CCC(=O)N[C@H](CCN)C(=O)N[C@H]1CCNC(=O)[C@H](CC(C)C)NC(=O)[C@H](CCN)NC(=O)[C@H](CCN)NC(=O)[C@@H](Cc2ccccc2)NC(=O)[C@H](CC(C)C)NC(=O)[C@H](CCN)NC1=O (stereo partly specified) | 0.40 |
| CC(C)CCCC(=O)N[C@H](CCN)C(=O)N[C@@H](CCN)C(=O)N[C@@H](CC(C)C)C(=O)N[C@H](Cc1ccccc1)C(=O)N[C@@H](CCN)C(N)=O | 0.00 |
| CCCCCCCCCCCCCC(=O)N[C@H](CCN)C(=O)N[C@@H](CCN)C(=O)N[C@@H](CCN)C(=O)N[C@@H](CC(C)C)C(=O)N[C@H](Cc1ccccc1)C(=O)N[C@@H](CCN)C(=O)N[C@@H](CCN)C(=O)N[C@@H](CC(C)C)C(N)=O (Myristoyl-[dDab][Dab][Dab]L[dF][Dab][Dab]L-NH2) | 1.15 |
| CCC(C)CCC(=O)N[C@@H](C)C(=O)N[C@@H](CCN)C(=O)N[C@@H](CCN)C(=O)N[C@@H](CC(C)C)C(=O)N[C@H](Cc1ccccc1)C(=O)N[C@@H](CCN)C(=O)N[C@@H](CCN)C(=O)N[C@@H](CC(C)C)C(=O)O (stereo partly specified) | 1.40 |
| CC(C)C[C@@H]1NC(=O)[C@H](CCN)NC(=O)[C@H](CCN)NC(=O)[C@@H](Cc2ccccc2)NC(=O)[C@H](CC(C)C)NC(=O)[C@H](CCN)NC(=O)[C@@H](NC(=O)[C@@H](CCN)NC(=O)OCC2c3ccccc3-c3ccccc32)CCNC1=O | 0.30 |
| CCC(C)CCC(=O)N[C@H](CCN)C(=O)N[C@@H](CCN)C(=O)N[C@@H](CCN)C(=O)N[C@@H](CC(C)C)C(=O)N[C@H](Cc1ccccc1)C(=O)N[C@@H](CCN)C(=O)N[C@@H](CCN)C(=O)N[C@@H](CC(C)C)C(N)=O (stereo partly drawn) ({Hexanoyl(4ξ-Me)}-[dDab][Dab][Dab]L[dF][Dab][Dab]L-NH2) | 0.00 |
| CC(C)C[C@H](NC(=O)[C@H](CCN)NC(=O)[C@H](CCN)NC(=O)[C@@H](Cc1ccccc1)NC(=O)[C@H](CC(C)C)NC(=O)[C@H](CCN)NC(=O)[C@H](CCN)NC(=O)[C@H](N)CCN)C(N)=O (H-[dDab][Dab][Dab]L[dF][Dab][Dab]L-NH2) | 0.40 |
| CCC(C)CCC(=O)N[C@H](CCN)C(=O)N[C@@H](C)C(=O)N[C@@H](CCN)C(=O)N[C@@H](CC(C)C)C(=O)N[C@H](Cc1ccccc1)C(=O)N[C@@H](CCN)C(=O)N[C@@H](CCN)C(=O)N[C@@H](CC(C)C)C(=O)O (stereo partly specified) | 0.40 |
| CCC(C)CCC(O)CC(=O)N[C@H](CCN)C(=O)N[C@H]1CCNC(=O)[C@H](CC(C)C)NC(=O)[C@H](CCN)NC(=O)[C@H](CCN)NC(=O)[C@@H](Cc2ccccc2)NC(=O)[C@H](CC(C)C)NC(=O)[C@H](CCN)NC1=O (stereo partly specified) (X2-[dDab][Dab][Dab]L[dF][Dab][Dab]L; lactam 2-C) | 0.70 |
| CCC(C)CCC(=O)N[C@H](CCN)C(=O)N[C@@H](CCN)C(=O)N[C@@H](CCN)C(=O)N[C@@H](CC(C)C)C(=O)N[C@H](Cc1ccccc1)C(=O)N[C@@H](CCN)C(=O)N[C@@H](C)C(=O)N[C@@H](CC(C)C)C(=O)O (stereo partly specified) | 0.70 |
| CCC(C)CCC(=O)N[C@H](CCN)C(=O)N[C@@H](CCN)C(=O)N[C@@H](CCN)C(=O)N[C@@H](CC(C)C)C(=O)N[C@H](Cc1ccccc1)C(=O)N[C@@H](C)C(=O)N[C@@H](CCN)C(=O)N[C@@H](CC(C)C)C(=O)O (stereo partly specified) | 1.70 |
| CCC(C)CCC(=O)N[C@H](CCN)C(=O)N[C@@H](CCN)C(=O)N[C@@H](CCN)C(=O)N[C@@H](CC(C)C)C(=O)N[C@H](Cc1ccccc1)C(=O)N[C@@H](CCN)C(=O)N[C@@H](CCN)C(=O)N[C@@H](C)C(=O)O (stereo partly specified) | 0.70 |

====

Test system: Pseudomonas aeruginosa
Test: Antimicrobial activity against Pseudomonas aeruginosa after 24 hrs by spectrophotometry
Format: functional
Non-standard residues stand in square brackets, D forms with d. Residues, ends and D or L forms follow the SMILES beside them. *: point of attachment. Myristoyl = CCCCCCCCCCCCCC(=O)*
metricName: MIC (µM)

| compound | recordedNumber |
| --- | --- |
| CCCCCCCCCCCCCC(=O)N[C@H](CCCCN)C(=O)N[C@H]1CCCCNC(=O)[C@H](CC(C)C)NC(=O)[C@H](CCCCN)NC(=O)[C@H](CCCCN)NC(=O)[C@@H](Cc2ccccc2)NC(=O)[C@H](CC(C)C)NC(=O)[C@H](CCCCN)NC1=O | 409 |
| CCCCCCCCCCCCCC(=O)N[C@H](CCCCN)C(=O)N[C@@H](CCCCN)C(=O)N[C@@H](CCCCN)C(=O)N[C@@H](CC(C)C)C(=O)N[C@H](Cc1ccccc1)C(=O)N[C@@H](CCCCN)C(=O)N[C@@H](CCCCN)C(=O)N[C@@H](CC(C)C)C(N)=O (Myristoyl-[dK]KKL[dF]KKL-NH2) | 12 |
| CCCCCCCCCCCCCC(=O)N[C@H](CCN)C(=O)N[C@H]1CCNC(=O)[C@H](CC(C)C)NC(=O)[C@H](CCN)NC(=O)[C@H](CCN)NC(=O)[C@@H](Cc2ccccc2)NC(=O)[C@H](CC(C)C)NC(=O)[C@H](CCN)NC1=O | 92 |
| CCC(C)CCC(=O)N[C@H](CCN)C(=O)N[C@@H](CCN)C(=O)N[C@@H](C)C(=O)N[C@@H](CC(C)C)C(=O)N[C@H](Cc1ccccc1)C(=O)N[C@@H](CCN)C(=O)N[C@@H](CCN)C(=O)N[C@@H](CC(C)C)C(=O)O (some centres undefined) | 10 |
